tested-system: α7-nAChR (Rattus norvegicus (Rat), UniProt Q05941)
Sequence (Q05941 23-502 limits assumed): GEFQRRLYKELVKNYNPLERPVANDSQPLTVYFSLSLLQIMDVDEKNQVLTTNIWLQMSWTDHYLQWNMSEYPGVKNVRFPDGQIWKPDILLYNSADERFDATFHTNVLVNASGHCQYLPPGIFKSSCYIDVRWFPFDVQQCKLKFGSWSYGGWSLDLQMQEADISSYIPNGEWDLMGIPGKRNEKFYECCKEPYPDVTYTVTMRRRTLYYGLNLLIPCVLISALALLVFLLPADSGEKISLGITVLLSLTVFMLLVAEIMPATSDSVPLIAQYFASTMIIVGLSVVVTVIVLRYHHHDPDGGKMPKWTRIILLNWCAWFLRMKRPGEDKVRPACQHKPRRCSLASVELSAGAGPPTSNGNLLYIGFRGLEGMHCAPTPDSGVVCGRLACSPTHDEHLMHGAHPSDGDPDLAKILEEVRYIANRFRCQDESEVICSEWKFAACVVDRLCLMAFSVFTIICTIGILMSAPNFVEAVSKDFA
Counter-ions that a name gives are not always drawn.
property-measured: pKi
Field pKi (float): negative decimal logarithm of the concentration in molar.

Need pKi of O=C(N[C@H]1CN2CCC1CC2)c1cc2cccc(C(F)(F)F)c2s1 [Example 64, hydrochloride] , thanks.
7.70

Can you look up the measured pKi of O=C(N[C@H]1CN2CCC1CC2)c1cc2cccc(Br)c2o1 for me?
7.24

Please give the measured pKi for this compound: O=C(N[C@H]1CN2CCC1CC2)c1cc2cc(F)ccc2s1 [Example 74, hydrochloride]
7.66

# get_value(readout='pKi', item= Nc1ccc2cc(C(=O)N[C@H]3CN4CCC3CC4)oc2c1 )
8.43
